Reference source: paper PMC10108886

System: PC3AR(shParp7)
method-notes: cells
cond: PC3/AR, read-out: EC50 of RBN2397 (nM), Ligand* (Conc.)=BBQ (10 nM); AR Status=WT; growth inhibition with PARP7-inducing ligand; partial maximal effect
Description: VCaP cells encode wild-type (WT) AR and the V7 variant, and are used to model castrate resistance owing to amplification of AR. CWR22Rv1 is an informative model for therapy resistance mediated by AR splice variants that lack the ligand-binding domain. PC3-AR is a PC3 derivative engineered to express WT AR, which drives a gene expression profile that overlaps other prostate lines ([18]). […]

# molecule, result-units, EC50
records = [
    ("C[C@@H](COCCC(=O)N1CCN(c2ncc(C(F)(F)F)cn2)CC1)Nc1cn[nH]c(=O)c1C(F)(F)F [RBN2397]", "nM", 5.6),
]

###

Tested on: VCaP
method-notes: cells
cond: Homo sapiens, VCaP, read-out: EC50 of RBN2397 (nM), Ligand* (Conc.)=BBQ (100 nM); AR Status=WT and V7; growth inhibition with PARP7-inducing ligand; partial maximal effect

# cpd-smiles, target-or-test-system, EC50 [nM]
data = [
    ("C[C@@H](COCCC(=O)N1CCN(c2ncc(C(F)(F)F)cn2)CC1)Nc1cn[nH]c(=O)c1C(F)(F)F", "VCaP", 34.2),
]
